Hello, the source for this data is patent US6943162B2, in case you need it.

TESTED_TARGET: ERα (Homo sapiens, UniProt P03372)
Construct: GST (N); made in house; host or cells: E. coli BL21(DE3)pLysS
Sequence (P03372 311-547 limits assumed): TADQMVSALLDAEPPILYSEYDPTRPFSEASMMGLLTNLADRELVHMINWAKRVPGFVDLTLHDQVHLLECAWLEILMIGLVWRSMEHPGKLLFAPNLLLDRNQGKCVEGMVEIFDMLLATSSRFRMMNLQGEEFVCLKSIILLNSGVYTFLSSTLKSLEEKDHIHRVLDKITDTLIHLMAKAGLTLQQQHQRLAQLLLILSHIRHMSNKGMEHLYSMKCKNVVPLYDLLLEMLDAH
METHOD_DESCRIPTION: Estrogen receptor competition binding assay (SPA, [3H]Estradiol), ERα
pKi: −log10 of the molar value.
QUANTITY: pKi

- CN(CCCc1ccc(Cl)cc1)c1nc(NCCc2ccc(O)cc2)nc(N2CCN(CCO)CC2)n1: 6.47

----------
pKi: −log10 of the molar value.
Dear all, this message contains pKi results, target or system ERβ (Homo sapiens, UniProt Q92731).
QUANTITY: pKi

- CN1CCN(c2nc(N(C)CCCc3ccc(F)cc3)nc(N(C)CCc3ccc(O)cc3)n2)CC1: 7.63
- CN(CCCc1ccc(Cl)cc1Cl)c1nc(N(C)CCc2ccc(O)cc2)nc(N2CCNCC2)n1: 7.48
- CN(CCCc1ccc(Cl)cc1)c1nc(NCCc2ccc(O)cc2)nc(N2CCN(Cc3cccnc3)CC2)n1: 7.50
- CN(CCCc1ccc(F)cc1)c1nc(N(C)CCc2ccc(O)cc2)nc(N2CCNCC2)n1: 7.61
- CN(CCCc1ccc(C(F)(F)F)cc1)c1nc(N(C)CCc2ccc(O)cc2)nc(N2CCNCC2)n1: 7.07
- CN1CCN(c2nc(N(C)CCCc3ccc(Cl)cc3)nc(N(C)CCc3ccc(O)cc3)n2)CC1: 7.88
- CN(CCCc1ccc(Cl)cc1)c1nc(NCCc2ccc(O)cc2)nc(N2CCNCC2)n1: 7.98
- CN(CCCc1ccc(F)c(F)c1)c1nc(N(C)CCc2ccc(O)cc2)nc(N2CCNCC2)n1: 7.63
- CN(CCCc1ccc(Cl)cc1)c1nc(NCCc2ccc(O)cc2)nc(N2CCN(CCO)CC2)n1: 7.83
